The reported measurements were obtained from patent US20230064490A1.

System: PKA
Method Notes: PKA-PhosFluor fluorescence in transfected HEK-293 cells treated with drug
Format: cell-based, human
Condition Notes: HEK-293 cells transfected with PKA-PhosFluor; excitation 488 nm, emission 530 nm; 6 hr after addition of drug
Quantity Name: fluorescence of PKA-PhosFluor (% fluorescence change)

Use the examples below as a reference point.
Compound	Result
O=S(=O)(NCCNC/C=C/c1ccc(Br)cc1)c1cccc2cnccc12 [H89]	reduced fluorescence
CC(C)Cn1c(=O)n(C)c(=O)c2[nH]cnc21 [IBMX]	induced fluorescence
CCCCCCOC(=O)[C@]1(O)C[C@@H]2O[C@@]1(C)n1c3ccccc3c3c4c(c5c6ccccc6n2c5c31)C(=O)NC4 [KT-5720]	reduced fluorescence
Nc1ncnc2c1ncn2[C@@H]1O[C@@H]2COP(O)(=S)O[C@H]2[C@H]1O (some centres unmarked) [Rp-cAMP]	reduced fluorescence

Alright, here's another compound for you.
For Nc1ncnc2c1nc(Br)n2[C@@H]1O[C@@H]2COP(=O)(O)O[C@H]2[C@H]1O [br-cAMP] the compound record lists fluorescence of PKA-PhosFluor (% fluorescence change) as induced fluorescence
